Tested on: PBMC
Details: 12.5 µM
readout-label: Average (percentage cell inhibition), Mastoparan PBMC (%)
Respond numerically; units are % and should not be typed.

-- ask Return Average (percentage cell inhibition), Mastoparan PBMC measured with PBMC given this molecule: CC[C@H](C)[C@H](N)C(=O)N[C@@H](CC(N)=O)C(=O)N[C@@H](CC(C)C)C(=O)N[C@@H](CCCCN)C(=O)N[C@@H](C)C(=O)N[C@@H](CC(C)C)C(=O)N[C@@H](C)C(=O)N[C@@H](C)C(=O)N[C@@H](CC(C)C)C(=O)N[C@@H](C)C(=O)N[C@@H](CCCCN)C(=O)N[C@@H](CCCCN)C(=O)N1CCC[C@H]1C(=O)N[C@@H](CC(C)C)C(N)=O [P13]
-- reply -11.6187

-- ask Look up Average (percentage cell inhibition), Mastoparan PBMC with PBMC for this molecule: CC[C@H](C)[C@H](NC(=O)[C@H](CCCCN)NC(=O)[C@H](CCCCN)NC(=O)[C@H](C)NC(=O)[C@H](CC(C)C)NC(=O)[C@H](C)NC(=O)[C@H](C)NC(=O)[C@H](CC(C)C)NC(=O)[C@H](C)NC(=O)[C@H](CCCCN)NC(=O)[C@H](CC(C)C)NC(=O)[C@H](CC(N)=O)NC(=O)[C@@H](N)Cc1c[nH]cn1)C(=O)N[C@@H](CC(C)C)C(N)=O [H1]
-- reply 0.9359

-- ask Recorded Average (percentage cell inhibition), Mastoparan PBMC for CC[C@H](C)[C@H](N)C(=O)N[C@H](C(=O)N[C@@H](CC(C)C)C(=O)N[C@@H](CCCCN)C(=O)N[C@@H](C)C(=O)N[C@@H](CC(C)C)C(=O)N[C@@H](C)C(=O)N[C@@H](C)C(=O)N[C@@H](CC(C)C)C(=O)N[C@@H](C)C(=O)N[C@@H](CCCCN)C(=O)N[C@@H](CCCCN)C(=O)N[C@H](C(=O)N[C@@H](CC(C)C)C(N)=O)[C@@H](C)CC)C(C)C [V2] with PBMC, please?
-- reply 65.6691
